species on record: Rattus norvegicus; test: Open TG-GATES - Regimen: Single; format: toxicity, organism-based, Sprague-Dawley; design: regimen Single, gender Male, age 6 weeks; conditions: in vivo, po, 0 mg/kg, 24 h, tissue Blood, route gavage, dose level Control
metricName: Neu (%)
Number in %, nothing else.

> print(dat)
                                   compound  quantitativereadout
1  CN(CCOc1ccc(CC2SC(=O)NC2=O)cc1)c1ccccn1.O=C(O)/C=C\C(=O)O (configuration not stated) [ROSIGLITAZONE MALEATE]                 14.4
2  NS(=O)(=O)c1cc(C(=O)O)c(NCc2ccco2)cc1Cl [FUROSEMIDE]                 20.6
3                                       CCO                 14.6
4          CN(C)CCCN1c2ccccc2Sc2ccc(Cl)cc21                 15.8
5  CC(S)C(=O)NCC(=O)O (configuration not stated)                 17.4

Q: # lookup: Neu of CCCCNC(=O)NS(=O)(=O)c1ccc(C)cc1 [TOLBUTAMIDE]
Result: 20.4

Q: # lookup: Neu of O=c1ccc2ccccc2o1
Result: 13.6
